procedure.summary: Pharmacokinetics in mouse after p.o. and i.v. administration
Assay type: in vivo
stated.conditions: mouse, brain, po, 10 mg/kg, mouse p.o.; brain; read-out: Cmax
endpoint: Cmax (ng/g)
// note: answer is a bare numeric in ng/g

Request: May I ask what Cmax has been recorded for `CN(C)CCCCn1c(=O)c2c(nc(Oc3cccc(Cl)c3)n2Cc2ccc(Cl)cc2)n(C)c1=O` ?
Response: 265

###

procedure.summary: Pharmacokinetics in mouse after p.o. and i.v. administration
Assay type: in vivo
stated.conditions: po, 10 mg/kg; mouse p.o.; heart plasma
endpoint: Tmax
Write the numeric value and follow it with the unit.

Request: May I ask what Tmax has been recorded for `CN(C)CCCCn1c(=O)c2c(nc(Oc3cccc(Cl)c3)n2Cc2ccc(Cl)cc2)n(C)c1=O` ?
Response: 4 h

###

procedure.summary: Pharmacokinetics in mouse after p.o. and i.v. administration
Type: in vivo
stated.conditions: C57BL/6J, mouse, in vivo, po, 10 mg/kg, mouse 10mg/kg p.o.; Mean; read-out: AUCINF_obs
endpoint: AUC(0-inf) (ng·h/mL)
// note: answer is a bare numeric in ng·h/mL

Request: May I ask what AUC(0-inf) has been recorded for `CN(C)CCCCn1c(=O)c2c(nc(Oc3cccc(Cl)c3)n2Cc2ccc(Cl)cc2)n(C)c1=O` ?
Response: 1220

###

procedure.summary: Pharmacokinetics in mouse after p.o. and i.v. administration
Assay type: in vivo
stated.conditions: brain and heart plasma, po, 10 mg/kg; mouse p.o.; read-out: AUClast brain/AUClast heart plasma (brain-to-plasma ratio, B/P)
endpoint: Kp

Request: May I ask what Kp has been recorded for CN(C)CCCCn1c(=O)c2c(nc(Oc3cccc(Cl)c3)n2Cc2ccc(Cl)cc2)n(C)c1=O [H08] ?
Response: 0.67

###

procedure.summary: Pharmacokinetics in mouse after p.o. and i.v. administration
Type: in vivo
stated.conditions: C57BL/6J, mouse, in vivo, po, 10 mg/kg, mouse 10mg/kg p.o.; individual animals 1-3; read-out: AUCINF_obs
endpoint: AUC(0-inf) (ng·h/mL)
// note: answer is a bare numeric in ng·h/mL

Request: May I ask what AUC(0-inf) has been recorded for CN(C)CCCCn1c(=O)c2c(nc(Oc3cccc(Cl)c3)n2Cc2ccc(Cl)cc2)n(C)c1=O [H08] ?
Response: 1300

###

procedure.summary: Pharmacokinetics in mouse after p.o. and i.v. administration
Format: in vivo
stated.conditions: mouse, portal vein plasma, po, 10 mg/kg, mouse p.o.; portal vein plasma; read-out: Cmax
endpoint: Cmax
Write the numeric value and follow it with the unit.

Request: May I ask what Cmax has been recorded for `CN(C)CCCCn1c(=O)c2c(nc(Oc3cccc(Cl)c3)n2Cc2ccc(Cl)cc2)n(C)c1=O` ?
Response: 493 ng/mL

###

procedure.summary: Pharmacokinetics in mouse after p.o. and i.v. administration
Assay type: in vivo
stated.conditions: C57BL/6J, mouse, in vivo, iv, 2 mg/kg, mouse 2mg/kg i.v.; Mean; read-out: AUCINF_obs
endpoint: AUC(0-inf) (ng·h/mL)
// note: answer is a bare numeric in ng·h/mL

Request: May I ask what AUC(0-inf) has been recorded for `CN(C)CCCCn1c(=O)c2c(nc(Oc3cccc(Cl)c3)n2Cc2ccc(Cl)cc2)n(C)c1=O` ?
Response: 519

###

procedure.summary: Pharmacokinetics in mouse after p.o. and i.v. administration
Format: in vivo
stated.conditions: mouse, heart plasma, po, 10 mg/kg, mouse p.o.
endpoint: AUC(0-t) (ng·h/mL)
// note: answer is a bare numeric in ng·h/mL

Request: May I ask what AUC(0-t) has been recorded for `CN(C)CCCCn1c(=O)c2c(nc(Oc3cccc(Cl)c3)n2Cc2ccc(Cl)cc2)n(C)c1=O` ?
Response: 778
